- protocolText: Stability: residual ratio (concentration after storage/initial concentration) by HPLC after standing at room temperature for 10 days
- Type: physicochemical
- recordedConditions: water
testReadout: remaining at 240 h, 2000 µM (%)
Field: numeric (%). Do not append units.

So what's the measured remaining at 240 h, 2000 µM for this one? CCCCCCCCCCCCCCCC(=O)OC[C@H](O)[C@H]1OC(=O)C(OP(=O)(O)O)=C1O
98

###

- protocolText: Stability: residual ratio (concentration after storage/initial concentration) by HPLC after standing at room temperature for 10 days
- Type: physicochemical
- recordedConditions: water; 2 mM aqueous solution, room temperature, 10 days, HPLC; read-out: Stability (residual ratio: concentration after storage/initial concentration)
- Protocol: Then, their residual ratios (concentration after storage/initial concentration) were determined by HPLC through a column Shodex Asahipak NH2P-50 4E (trade name, manufactured by Showa Denko KK) to evaluate stability.
testReadout: remaining at 240 h, 2000 µM (%)
Field: numeric (%). Do not append units.

So what's the measured remaining at 240 h, 2000 µM for this one? O=C1O[C@H]([C@@H](O)CO)C(O)=C1OP(=O)([O-])[O-].[Mg+2]
97

Where do these numbers come from? They come from patent US6127409A.
